Data provenance is patent US20250026815A1.

Task for the reader: assign each of the following binders its reported Kd.
biological target: T1, recombinant RSV-F protein (RSV A2 strain fusion (F) protein with added His tag) (human respiratory syncytial virus, A2 …, UniProt P03420 26-524); assay: SPR (Biacore), antibody captured, RSV-F as analyte
T1 construct: also called RSV-F recombinant protein
T1 sequence (P03420 26-109, chain 1 of 2): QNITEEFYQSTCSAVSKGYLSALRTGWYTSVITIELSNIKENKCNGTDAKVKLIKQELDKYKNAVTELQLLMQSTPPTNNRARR
T1 sequence (P03420 137-524, chain 2 of 2): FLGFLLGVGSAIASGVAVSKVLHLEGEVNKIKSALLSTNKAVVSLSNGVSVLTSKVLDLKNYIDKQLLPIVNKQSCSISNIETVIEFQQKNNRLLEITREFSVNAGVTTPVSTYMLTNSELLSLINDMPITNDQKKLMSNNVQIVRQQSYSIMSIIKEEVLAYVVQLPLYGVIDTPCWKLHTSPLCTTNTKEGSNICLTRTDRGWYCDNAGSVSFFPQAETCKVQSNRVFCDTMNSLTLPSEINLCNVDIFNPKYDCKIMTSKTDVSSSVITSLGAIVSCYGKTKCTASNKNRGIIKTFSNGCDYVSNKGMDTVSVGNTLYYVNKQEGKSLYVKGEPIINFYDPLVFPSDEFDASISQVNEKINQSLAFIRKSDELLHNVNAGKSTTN

Find the recorded Kd belonging to R1-11C3QH (antibody, human IgG1, kappa, V domains shown, also called chimeric antibody of R1-11C3) VH: EVQLEESGAELVRSGASVKLSCTASGFNIKDYYMHWVKQRPEQGLEWIGWIDPENGDTEYAPKFQGKATLTADTSSNTAYLQLSTLTSEDNAVYYCNAAYYGDYVEDMDYWGQGTSVTVSS VL: DIVMTQTPLSLSVSLGDQASISCRSSQSIVHSDGNTFLEWYLQKPGQSPKLLIYKVSNRFSGVPDRFSGSGSGTDFTLKISRVEAEDLGVYYCFQASHLPRTFGGGTKLEIKR and report it.
0.0256 nM

# iterate: R3-39A3QH (antibody, human IgG1, kappa, V domains shown, also called chimeric antibody of R3-39A3) VH: QVKLEESGPELVKPGASVKISCKASGYAFSSSWVNWVQQRPGQGLEWIGRIYPGDGETKYSGKFRGKATLTADKSSNTVYMQVSSLTSVDSAVYFCAREGGLITSSGYYHAMDYWGQGTSVTVSS VL: DIVLTQSPPSLAVSLGQRATISCRASKSVDSYGNGFMHWYQQKPGQPPKLLIFLASNLESGVPARFSGSGSRTDFTLTIDPVEADDAASYYCQQSDEDPTFGGGTKLEIKR
0.171 nM

Next binder: R10-10B2QH (antibody, human IgG1, kappa, V domains shown, also called chimeric antibody of R10-10B2) VH: QVQLEESGAELVRSGASVKLSCTASGFNIKDYYIHWVKQRPEQGLEWIGWNDPENGDTEYAPKFQGKATMTADTSSNTVYLQLSSLTSEDSAVYFCKSFDSYLEYWGQGTSVTVSS VL: DIVMTQTTLSLPVNLGDQASISCRSSQSLVHTDGNTFLEWYLQRPGQSPKLLIYKVSIRFSGVPDRFSGSGSGTDFTLKISRVETEDLGVYYCFQGSHVPRTFGGGTKLEIKR
0.0489 nM
